target: SCRIB_3, Q14160; experiment: holdup assay; set-up: key: below the threshold = too weak to quantify, mostly under pKd 3.1 to 4; conditions: plain residues with an end cap or a label only (N-terminal biotin on a linker: ado-ado)
Sequence (Q14160 999-1103): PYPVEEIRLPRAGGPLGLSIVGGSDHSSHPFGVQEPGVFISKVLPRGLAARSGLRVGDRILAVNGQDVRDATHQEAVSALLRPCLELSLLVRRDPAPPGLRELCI
ATTRIBUTE MEASURED: pKd

>  <BINDER>
AAVENKVTDL [PLXNB1, O43157]

>  <MEASUREMENT>
4.94

$$$$
>  <BINDER>
KKMLQRRTLL [OR8G1, Q15617]

>  <MEASUREMENT>
4.07

$$$$
>  <BINDER>
NVYGIESVKI [GRIA2, P42262]

>  <MEASUREMENT>
3.56

$$$$
>  <BINDER>
QRPYRRGSEI [KCNJ18, B7U540]

>  <MEASUREMENT>
4.05

$$$$
>  <BINDER>
TNSRHGETTV [FZD2, Q14332]

>  <MEASUREMENT>
4.62

$$$$
>  <BINDER>
EDGESWEYQI [TRPV6, Q9H1D0]

>  <MEASUREMENT>
4.11

$$$$
>  <BINDER>
VLYPREGTEV [FOXI1, Q12951]

>  <MEASUREMENT>
4.36

$$$$
>  <BINDER>
TGLWKHETTV [ADGRA3, Q8IWK6]

>  <MEASUREMENT>
4.88

$$$$
>  <BINDER>
ARESQKVSHV [FAM110B, Q8TC76]

>  <MEASUREMENT>
4.47

$$$$
>  <BINDER>
APIAGFSSFV [SDK2, Q58EX2]

>  <MEASUREMENT>
4.06

$$$$
>  <BINDER>
PPGKHLVTEV [KCNA7, Q96RP8]

>  <MEASUREMENT>
4.56

$$$$
>  <BINDER>
NISYRRESAI [KCNJ4, P48050]

>  <MEASUREMENT>
4.91

$$$$
